- Tested on: NCI-H510 multicellular tumor spheroid growth, % test/control
- Assay comment: Anticancer human tumor NCI-H510 cell line growth inhibition [Asc];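 note: spheroids exposed to agents for 7 days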
- Condition details: curve of first compound; second compound 1 µM
Below, each of the compounds is paired with its reported IC50 value.

*Q* State the measured IC50 (NCI-H510 multicellular tumor spheroid growth, % test/control) of C=CC(=O)N1CCN(c2nc(=O)n(-c3c(C)ccnc3C(C)C)c3nc(-c4c(O)cccc4F)c(F)cc23)C(C)C1 (configuration not stated) + CNC(C)C(=O)NC1CN(S(=O)(=O)c2cccc(S(=O)(=O)N3CCC4CCC(C(=O)NC(c5ccccc5)c5ccccc5)N4C(=O)C(NC(=O)C(C)NC)C3)c2)CCC2CCC(C(=O)NC(c3ccccc3)c3ccccc3)N2C1=O
*A* > 10 µM

Next:
*Q* State the measured IC50 (NCI-H510 multicellular tumor spheroid growth, % test/control) of NC(=O)C(=Cn1cnc(-c2cc(C(F)(F)F)cc(C(F)(F)F)c2)n1)c1cncnc1 + CNC(C)C(=O)NC1CN(S(=O)(=O)c2cccc(S(=O)(=O)N3CCC4CCC(C(=O)NC(c5ccccc5)c5ccccc5)N4C(=O)C(NC(=O)C(C)NC)C3)c2)CCC2CCC(C(=O)NC(c3ccccc3)c3ccccc3)N2C1=O
*A* > 0.3 µM

====

- Test system: NCI-H510 multicellular tumor spheroid growth, % test/control
- Assay comment: Anticancer human tumor NCI-H510 cell line growth inhibition [Asc];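 note: spheroids exposed to agents for 7 days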;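 for viability, T/C: 100% = DMSO vehicle control wells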
- Condition details: second compound 0.949 µM; first compound 0.316 µM; stronger effect = lower value
Below, each of the compounds is paired with its reported viability, T/C value.
Field: numeric (%). Do not append units.

Example entries and their recorded answers appear below.
*Q* Item C=C(F)C(=O)N1CCN(c2nc(OCC3CCCN3C)nc3c2CCN(c2cccc4cccc(Cl)c24)C3)CC1CC#N (stereo not drawn) + CCN1C(C(=O)NC23CCC(C(=O)O)(CC2)CC3)C(c2cccc(Cl)c2F)C2(C(=O)Nc3cc(Cl)ccc32)C12CCCCC2 : provide viability, T/C
*A* 88.5

*Q* Item O=C(c1ccc(F)c(F)c1Nc1ccc(I)cc1F)N1CC(O)([C@@H]2CCCCN2)C1 + CCN1C(C(=O)NC23CCC(C(=O)O)(CC2)CC3)C(c2cccc(Cl)c2F)C2(C(=O)Nc3cc(Cl)ccc32)C12CCCCC2 : provide viability, T/C
*A* 118

*Q* Item O=C(c1cc(Cc2n[nH]c(=O)c3ccccc23)ccc1F)N1CCN(C(=O)C2CC2)CC1 + CCN1C(C(=O)NC23CCC(C(=O)O)(CC2)CC3)C(c2cccc(Cl)c2F)C2(C(=O)Nc3cc(Cl)ccc32)C12CCCCC2 : provide viability, T/C
*A* 97.5

Next:
*Q* Item CNC(C)C(=O)NC1CN(S(=O)(=O)c2cccc(S(=O)(=O)N3CCC4CCC(C(=O)NC(c5ccccc5)c5ccccc5)N4C(=O)C(NC(=O)C(C)NC)C3)c2)CCC2CCC(C(=O)NC(c3ccccc3)c3ccccc3)N2C1=O (stereo not drawn) + CCN1C(C(=O)NC23CCC(C(=O)O)(CC2)CC3)C(c2cccc(Cl)c2F)C2(C(=O)Nc3cc(Cl)ccc32)C12CCCCC2 : provide viability, T/C
*A* 102

====

- Test system: NCI-H510 multicellular tumor spheroid growth, % test/control
- Assay comment: Anticancer human tumor NCI-H510 cell line growth inhibition [Asc];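 note: spheroids exposed to agents for 7 days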;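 for viability, T/C: 100% = DMSO vehicle control wells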
- Condition details: second compound 0.316 µM; first compound 0.3 µM; stronger effect = lower value
Measured property: viability, T/C (%)
Field: numeric (%). Do not append units.

Example entries and their recorded answers appear below.
*Q* Item Cc1nc(N2CCC3(CC2)COC(C)C3N)c(CO)nc1Sc1ccnc(N)c1Cl (stereo not drawn) + CNC(C)C(=O)NC1CN(S(=O)(=O)c2cccc(S(=O)(=O)N3CCC4CCC(C(=O)NC(c5ccccc5)c5ccccc5)N4C(=O)C(NC(=O)C(C)NC)C3)c2)CCC2CCC(C(=O)NC(c3ccccc3)c3ccccc3)N2C1=O : provide viability, T/C
*A* 98.5

*Q* Item Cc1nc(N2CCC3(CC2)COC(C)C3N)c(CO)nc1Sc1ccnc(N)c1Cl (stereo not drawn) + Cc1c(S(C)(=O)=O)c(-c2cc(F)cc(N3CCN(c4ccc(NS(=O)(=O)c5ccc(NC(CCN6CCC(C(=O)OCCCP(=O)(O)O)CC6)CSc6ccccc6)c(S(=O)(=O)C(F)(F)F)c5)cc4)CC3)c2)c(-c2ccc(Cl)cc2)n1C(C)C : provide viability, T/C
*A* 127

***
*Q* Item CCN1C(C(=O)NC23CCC(C(=O)O)(CC2)CC3)C(c2cccc(Cl)c2F)C2(C(=O)Nc3cc(Cl)ccc32)C12CCCCC2 (stereo not drawn) + CNC(C)C(=O)NC1CN(S(=O)(=O)c2cccc(S(=O)(=O)N3CCC4CCC(C(=O)NC(c5ccccc5)c5ccccc5)N4C(=O)C(NC(=O)C(C)NC)C3)c2)CCC2CCC(C(=O)NC(c3ccccc3)c3ccccc3)N2C1=O : provide viability, T/C
*A* 109
